measured_on: Voltage-dependent L-type calcium channel subunit alpha-1C (phenylalkylamine site) (Rattus norvegicus, UniProt P22002)
Sequence (P22002 whole entry): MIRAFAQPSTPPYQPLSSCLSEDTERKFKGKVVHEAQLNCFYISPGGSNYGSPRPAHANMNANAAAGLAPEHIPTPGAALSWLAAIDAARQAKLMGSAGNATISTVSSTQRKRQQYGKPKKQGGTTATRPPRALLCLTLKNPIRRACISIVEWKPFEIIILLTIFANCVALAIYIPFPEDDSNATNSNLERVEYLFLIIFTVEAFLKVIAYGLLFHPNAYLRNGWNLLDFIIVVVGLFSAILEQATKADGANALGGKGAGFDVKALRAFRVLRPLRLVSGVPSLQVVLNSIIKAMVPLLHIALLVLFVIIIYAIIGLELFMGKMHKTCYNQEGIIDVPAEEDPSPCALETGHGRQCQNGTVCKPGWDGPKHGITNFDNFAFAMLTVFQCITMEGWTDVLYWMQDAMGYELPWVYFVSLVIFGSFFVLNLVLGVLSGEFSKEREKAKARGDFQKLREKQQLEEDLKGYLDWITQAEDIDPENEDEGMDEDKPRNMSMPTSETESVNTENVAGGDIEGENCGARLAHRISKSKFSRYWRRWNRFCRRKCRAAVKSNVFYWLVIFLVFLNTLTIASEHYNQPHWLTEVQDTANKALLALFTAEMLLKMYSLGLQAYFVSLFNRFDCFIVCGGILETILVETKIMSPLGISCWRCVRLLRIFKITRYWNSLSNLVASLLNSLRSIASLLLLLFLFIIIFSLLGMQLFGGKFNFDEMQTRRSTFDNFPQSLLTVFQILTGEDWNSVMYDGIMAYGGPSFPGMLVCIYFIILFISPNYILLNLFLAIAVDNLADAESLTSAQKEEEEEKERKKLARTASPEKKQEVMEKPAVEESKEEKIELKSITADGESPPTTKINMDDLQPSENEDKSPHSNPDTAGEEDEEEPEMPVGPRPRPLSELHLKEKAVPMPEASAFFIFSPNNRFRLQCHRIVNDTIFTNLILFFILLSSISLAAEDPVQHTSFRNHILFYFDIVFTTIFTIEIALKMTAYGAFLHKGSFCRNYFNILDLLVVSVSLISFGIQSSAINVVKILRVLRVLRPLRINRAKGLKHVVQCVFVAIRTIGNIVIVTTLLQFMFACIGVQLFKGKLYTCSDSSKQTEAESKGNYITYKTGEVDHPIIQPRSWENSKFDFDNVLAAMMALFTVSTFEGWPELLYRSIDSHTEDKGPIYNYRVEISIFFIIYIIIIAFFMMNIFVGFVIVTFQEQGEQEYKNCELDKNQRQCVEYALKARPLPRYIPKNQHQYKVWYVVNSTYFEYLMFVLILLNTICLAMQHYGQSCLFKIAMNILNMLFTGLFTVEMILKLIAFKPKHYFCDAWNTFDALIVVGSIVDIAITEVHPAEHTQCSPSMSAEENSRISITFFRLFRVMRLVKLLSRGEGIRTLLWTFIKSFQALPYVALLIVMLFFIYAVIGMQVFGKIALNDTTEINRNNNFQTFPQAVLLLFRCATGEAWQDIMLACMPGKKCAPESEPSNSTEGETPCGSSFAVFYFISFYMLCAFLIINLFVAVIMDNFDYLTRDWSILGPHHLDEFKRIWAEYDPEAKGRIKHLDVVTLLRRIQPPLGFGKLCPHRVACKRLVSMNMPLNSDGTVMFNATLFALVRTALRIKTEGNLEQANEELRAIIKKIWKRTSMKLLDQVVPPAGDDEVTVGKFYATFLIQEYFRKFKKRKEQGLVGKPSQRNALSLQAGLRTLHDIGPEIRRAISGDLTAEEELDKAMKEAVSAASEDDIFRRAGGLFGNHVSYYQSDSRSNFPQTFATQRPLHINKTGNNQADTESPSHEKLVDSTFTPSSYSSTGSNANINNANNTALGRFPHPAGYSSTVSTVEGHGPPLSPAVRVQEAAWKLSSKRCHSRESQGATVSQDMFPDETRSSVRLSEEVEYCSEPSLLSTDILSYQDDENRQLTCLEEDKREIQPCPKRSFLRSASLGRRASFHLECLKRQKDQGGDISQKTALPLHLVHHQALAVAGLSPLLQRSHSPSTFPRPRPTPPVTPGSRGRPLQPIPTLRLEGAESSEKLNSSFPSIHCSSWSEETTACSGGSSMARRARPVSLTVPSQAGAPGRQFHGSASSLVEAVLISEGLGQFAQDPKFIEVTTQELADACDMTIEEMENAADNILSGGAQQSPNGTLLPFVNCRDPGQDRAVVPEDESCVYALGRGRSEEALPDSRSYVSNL
method_description: CA+/PAASITE Eurofins-Panlabs selectivity data (BI)
condition_notes: compound concentration 0.3 uM, read-out: % Ctrl
observation_type: activity at 0.3 µM

Request: In one line, give reported activity at 0.3 µM of the entry C[C@H](NC(=O)c1cnc2n1[C@](C)(Cc1ccc(C#N)cc1)C(=O)N2c1cc(Cl)c(F)c(Cl)c1)C(=O)NC1(c2ccccn2)CC1 .
Response: 102% (not active)

* * *

measured_on: Sigma intracellular receptor 2 (Homo sapiens, UniProt Q5BJF2)
Sequence (Q5BJF2 whole entry): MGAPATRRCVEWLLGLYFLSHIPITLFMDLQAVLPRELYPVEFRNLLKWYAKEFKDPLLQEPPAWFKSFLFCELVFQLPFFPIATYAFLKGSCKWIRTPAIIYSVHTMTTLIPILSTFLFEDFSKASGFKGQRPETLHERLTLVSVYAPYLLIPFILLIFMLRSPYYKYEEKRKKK
method_description: GPCRScan assay: inhibition of Sigma 2
Design: radioligand conc. used [nm] 5.0, parental cells HEKT
condition_notes: read-out: Ki
observation_type: Ki (nM)
Entry rule: numbers only, all in nM.

Request: In one line, give reported Ki of the entry C[C@@]1(Cc2ccc(C#N)cc2)C(=O)N(c2cc(Cl)cc(Cl)c2)c2ncc(C(=O)NC3(c4nc(C5CCC5)no4)CC3)n21 .
Response: 558
